- System: TYKNU
- methodSummary: fractional viability relative to vehicle; higher = less growth inhibition
- protocolConditions: 10uM; 72 h; genotype: OPA1 knockout (sgOPA1 #2)
Whole data set: some 2,000 compounds, median “fractional viability relative to vehicle” near 0.92, cut for the lowest 2% near 0.11. What follows is part of a selection rich in the lowest values, with near analogues and random picks from the rest.
Note that class boundaries on fractional viability are low: < 0.5; medium: ≥ 0.5 and < 0.9; high: ≥ 0.9

// known answers, use as guide
- compound: "CCC[C@H](Nc1nc(-c2ccc(NC(=O)NCC)c(OC)c2)ncc1C)c1cccnc1 [CYT997 (Lexibulin)]"
  className: "low"
- compound: "Cc1c[nH]c(/C=C2\\C(=O)Nc3ccccc32)c1CCC(=O)O"
  className: "medium"
- compound: "O=C(CSc1nc2c(c(=O)n1-c1ccccc1)SCC2)Nc1ccc(-c2ccccc2)cn1"
  className: "high"

Field: class (fractional viability) — entry: `Cc1noc(C)c1-c1ccc(-c2cc(C(N)=O)c(NC(N)=O)s2)c(O[C@H]2CCNC2)c1` medium

# repeat for CCOC(=O)c1ccc(NC2CCCCC2)c(N)c1 [Ferrostatin-1 (Fer-1)] high

Item: `COc1cc2ncnc(Sc3nnc(C)s3)c2cc1OC` low

Also check `CNC(=O)c1ccccc1Oc1nc(Nc2cc(OC)c(OC)c(OC)c2)ncc1Br` medium

Same lookup for `C=CC(=O)Nc1cccc(Oc2nc(Nc3ccc(N4CCN(C)CC4)cc3OC)ncc2Cl)c1` , please. medium

Now the same for C=C1C(=O)O[C@H]2[C@H]1CC/C(C)=C/CC[C@@]1(C)O[C@@H]21 [(-)-Parthenolide] low

Also check `COc1ccc(-c2ccc3ncc4c(c3c2)n(-c2ccc(N3CCNCC3)c(C(F)(F)F)c2)c(=O)n4C)cn1` low

Subsequent entry: COCC[n+]1c2c(n(Cc3cnccn3)c1C)C(=O)c1ccccc1C2=O [YM155 (Sepantronium Bromide)] low

Now give it for `CC(=O)O/N=C1\C(=O)N(Cc2cc(Cl)ccc2Cl)c2ccc(Cl)cc21` too. high

Try this compound too: `C[C@H](NC(=O)/C(C#N)=C/c1cccc(Br)n1)c1ccccc1` low

Same question, COc1cc(O)c(CC=C(C)C)c(O)c1C(=O)/C=C/c1ccc(O)cc1 [Xanthohumol] this time medium

Try this compound too: CCOC(=O)N[C@@H]1CC[C@@H]2[C@@H](C1)C[C@H]1C(=O)O[C@H](C)[C@H]1[C@H]2/C=C/c1ccc(-c2cccc(F)c2)cn1 [Vorapaxar] high

Same question for C=C1C(=O)O[C@@H]2/C=C(\C)CC/C=C(\C)CC[C@@H]12 [Costunolide] please. medium

Likewise for Nc1cccc2c1C(=O)N(C1CCC(=O)NC1=O)C2=O (centres undefined) [Pomalidomide] ? high

###

As shown below, each of these compounds has a reported fractional viability value.
- Tested on: TYKNU
- methodSummary: fractional viability relative to vehicle; TYKNU is a high-grade serous ovarian cancer line; higher = less growth inhibition
- protocolConditions: 2uM; 72 h; genotype: OPA1 knockout (sgOPA1 #2)
Structures can show the parent of a compound that is named as a salt. Over roughly 2,000 compounds, “fractional viability relative to vehicle” has its median near 0.92; the lowest 2% begin near 0.11. Shown is part of a subset that was picked to be rich in the lowest values.

These solved cases illustrate the format of a correct answer.
- compound: "COc1ccc([C@@H]2CC(=O)c3c(O)cc(O[C@@H]4O[C@H](CO)[C@@H](O)[C@H](O)[C@H]4O[C@@H]4O[C@@H](C)[C@H](O)[C@@H](O)[C@H]4O)cc3O2)cc1O"
  fractional viability: 1.11
- compound: "CN1CCC(CNc2ccc3ncc(-c4cccc(OC(F)(F)F)c4)n3n2)CC1 [SGI-1776 free base]"
  fractional viability: 0.888
- compound: "C=CC(=O)Nc1cccc(Oc2nc(Nc3ccc(N4CCN(C)CC4)cc3OC)ncc2Cl)c1"
  fractional viability: 0.964

Request body: readout fractional viability, system TYKNU, query `CCNC(=O)C#Cc1ccc2c(C(=Nc3ccc(CN(C)C)cc3)c3ccccc3)c(O)[nH]c2c1` . Return the value. 0.276

Param item: `Cc1cc(C(N)=O)ccc1-n1c(CCC(=O)O)ccc1-c1ccc(-n2ccnc2)cc1` 0.877

And `C=CC(=O)Nc1cccc(Oc2nc(Nc3ccc(N4CCN(C)CC4)cc3)ncc2Cl)c1` ? 0.825

Now this one: O=C(O)CCCN1CCC(O[C@@H](c2ccc(Cl)cc2)c2ccccn2)CC1 [Bepotastine Besilate] 1.14

Now consider `C=CC(=O)Nc1cccc(Sc2nc(Nc3ccc(N4CCN(C)CC4)cc3)ncc2Cl)c1` and answer again. 1.31

Ok, now `CN1CCC(COc2cnc(-c3cccc(Cn4nc(-c5cccc(C#N)c5)ccc4=O)c3)nc2)CC1` 0.78

Try this compound too: `c1ccc2c(CCNc3ccc(Nc4ccncc4)cc3)c[nH]c2c1` 0.485

Param item: `CCCc1cc2c(N3CCN(C4=NCC(C)(C)S4)CC3)ncnc2s1` 0.828

Next compound: CCCCN1CCCC[C@H]1C(=O)Nc1c(C)cccc1C [Levobupivacaine HCl] 1.06

Now the compound `Clc1cccc(CN=C2Nc3ccccc3NC23CCNCC3)c1` 0.816

Proceed to `COc1cc2ncnc(Sc3nnc(C)s3)c2cc1OC` 0.789

Try the compound O=C(COc1ccc(Cl)cc1)NC1CCC(NC(=O)COc2ccc(Cl)cc2)CC1 (stereo not drawn) [ISRIB (trans-isomer)] 1.09

Moving on to the next compound: `O=C(O)CCC(=O)Nc1ccc(Br)cn1` 0.818

Same again, this time with `CNC(=O)c1ccccc1Oc1nc(Nc2cc(OC)c(OC)c(OC)c2)ncc1Br` 0.717

Subsequent entry: `Cc1ccc(-c2c(-c3nn(C)c4ncnc(N5CC[C@H](N6CCCCC6)C5)c34)cnn2C)cc1` 0.983
